test system: human peripheral blood mononuclear (PBM) cells; assay: Cytotoxicity, CellTiter 96 cell proliferation assay, PBM cells; assay type: cell-based; settings: read-out: Cytotoxicity, CC50 PBM; PBM cells
measured_attribute: CC50

[
  {
    "given_smiles": "Cc1c(C(=O)C(=O)NCc2cn(CCCCCCCCCCn3cc(CNC(=O)C(=O)c4c(C)c(C(=O)Nc5ccc(F)c(F)c5)n(C)c4C)nn3)nn2)c(C)n(C)c1C(=O)Nc1ccc(F)c(F)c1",
    "assayed_system": "human peripheral blood mononuclear (PBM) cells",
    "result": "> 100 µM"
  },
  {
    "given_smiles": "Cc1c(C(=O)C(=O)NCc2cn(CCCCCCCCCCCCCCCCCCn3cc(CNC(=O)C(=O)c4c(C)c(C(=O)Nc5ccc(F)c(F)c5)n(C)c4C)nn3)nn2)c(C)n(C)c1C(=O)Nc1ccc(F)c(F)c1",
    "assayed_system": "human peripheral blood mononuclear (PBM) cells",
    "result": "> 100 µM"
  }
]

Incoming: Quick check: CC50 of Cc1c(C(=O)C(=O)NCc2cn(CCCCCCCCCCCCCCn3cc(CNC(=O)C(=O)c4c(C)c(C(=O)Nc5ccc(F)c(F)c5)n(C)c4C)nn3)nn2)c(C)n(C)c1C(=O)Nc1ccc(F)c(F)c1 ?
Outgoing: > 100 µM

Each recorded value in this set is attributed to paper PMC13077713.
